Value source: paper PMC7922224

# S. aureus ATCC 6538: MIC values follow
Answers are plain numbers, in µg/mL.

Illustrative cases are given below, each with its answer.
[
  {
    "smiles-data": "O=C(Nc1ccccc1)Nc1ccccc1",
    "val": 128
  },
  {
    "smiles-data": "Cc1ccc(NC(=O)Nc2ccc(Cl)c(Cl)c2)cc1",
    "val": 64
  }
]

// next entry
[Q] Write MIC of O=C(Nc1ccccc1)Nc1ccc(Cl)cc1 ; system used: S. aureus ATCC 6538
[A] 64

----------
Assay read-out MIC; system under study: S. aureus ATCC 6538.
One number for each entry, in µg/mL.

[
  {
    "molecule": "O=C(Nc1ccccc1)Nc1ccc(F)c(F)c1",
    "target-system": "S. aureus ATCC 6538",
    "unit-label": "µg/mL",
    "val": 128
  },
  {
    "molecule": "O=C(Nc1ccc(Cl)cc1)Nc1ccc(Cl)cc1",
    "target-system": "S. aureus ATCC 6538",
    "unit-label": "µg/mL",
    "val": 128
  }
]

I would be grateful if you could provide MIC for each of the following entries.
1. Cc1cccc(C)c1NC(=O)Nc1ccc(Cl)cc1
2. COc1ccc(NC(=O)Nc2c(C)cccc2C)cc1
3. O=C(Nc1ccc(Cl)cc1)Nc1ccc(Cl)c(Cl)c1 [1ce (TCC), reference compound]
4. Cc1ccccc1NC(=O)Nc1ccccc1

[A]
1: 16; 2: 32; 3: 128; 4: 32

Batch: MIC for all items listed.
1. Cc1ccc(NC(=O)Nc2ccccc2)cc1
2. Cc1ccc(NC(=O)Nc2c(C)cccc2C)cc1

[A]
64
16

----------
Recorded MIC values (S. aureus ATCC 29213) are given below.

Past entries and their recorded results:
[
  {
    "smiles-data": "Cc1cccc(C)c1NC(=O)Nc1ccccc1",
    "val": "> 256 µg/mL"
  },
  {
    "smiles-data": "O=C(Nc1ccccc1)Nc1ccccc1",
    "val": "> 256 µg/mL"
  }
]

[Q] Identify the reported MIC for the following entry. Cc1ccccc1NC(=O)Nc1ccc(F)c(F)c1
[A] > 256 µg/mL
